Molecular target: SIK2 (Homo sapiens)
Construct: purchased ThermoFisher Scientific PV4792
Sequence (Q9H0K1 whole entry): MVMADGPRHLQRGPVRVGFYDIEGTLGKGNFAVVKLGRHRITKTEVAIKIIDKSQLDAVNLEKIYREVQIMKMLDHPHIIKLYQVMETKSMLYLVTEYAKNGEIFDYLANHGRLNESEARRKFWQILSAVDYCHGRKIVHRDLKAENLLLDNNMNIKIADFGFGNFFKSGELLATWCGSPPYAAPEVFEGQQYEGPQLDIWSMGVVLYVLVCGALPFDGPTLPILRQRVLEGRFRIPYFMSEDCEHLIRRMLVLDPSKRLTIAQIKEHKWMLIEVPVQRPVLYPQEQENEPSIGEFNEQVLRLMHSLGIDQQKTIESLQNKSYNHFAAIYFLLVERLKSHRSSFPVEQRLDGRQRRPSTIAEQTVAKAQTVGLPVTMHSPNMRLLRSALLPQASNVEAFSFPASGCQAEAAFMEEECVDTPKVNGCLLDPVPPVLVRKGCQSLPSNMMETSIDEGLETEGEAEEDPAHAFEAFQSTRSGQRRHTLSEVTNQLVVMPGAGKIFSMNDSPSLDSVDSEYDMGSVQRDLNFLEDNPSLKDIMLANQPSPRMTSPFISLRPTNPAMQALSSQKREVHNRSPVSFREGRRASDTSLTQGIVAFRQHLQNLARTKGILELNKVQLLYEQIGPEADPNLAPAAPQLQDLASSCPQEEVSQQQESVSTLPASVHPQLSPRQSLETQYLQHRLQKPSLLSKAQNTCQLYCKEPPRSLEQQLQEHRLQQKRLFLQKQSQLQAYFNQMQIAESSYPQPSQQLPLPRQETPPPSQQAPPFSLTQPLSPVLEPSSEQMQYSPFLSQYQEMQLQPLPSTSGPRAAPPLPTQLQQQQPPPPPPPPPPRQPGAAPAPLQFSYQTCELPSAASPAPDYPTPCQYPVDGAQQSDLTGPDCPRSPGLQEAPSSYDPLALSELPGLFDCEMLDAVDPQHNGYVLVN
Experiment: 33P radioactive kinase assay, SIK2; further: AMARA 5 µM, 10 µM ATP
Type: biochemical
Experimental: The principle of the ^33P radioactive kinase assay consists in measuring the incorporated ^33P into the substrate AMARA peptide when phosphorylated by SIK1, SIK2 or SIK3 using [^33P]-g-ATP, which correlates with kinase activity. […] After harvesting the kinase reactions, the filter plates are washed 6 times with phosphoric acid (75 mM). […] The top of the plates are sealed with TopSeal-A. Read-out is performed with a TopCount instrument (PerkinElmer Inc.). […]

compound: COc1cc(-n2cnc3cc(C4(C#N)CCC4)ccc32)cc(OC)c1C(=O)NCC(F)(F)F
experimental-target: SIK2 (Homo sapiens)
IC50: > 500 nM
--
compound: COc1cc(-n2cnc3cc(C4CCCNC4)ccc32)cc(OC)c1C(=O)NCC(F)(F)F (centres unmarked)
experimental-target: SIK2 (Homo sapiens)
IC50: > 500 nM
--
compound: CCNC(=O)c1c(OC)cc(-c2cnc3cc(C(C)(C)C#N)ccn23)cc1OC
experimental-target: SIK2 (Homo sapiens)
IC50: > 500 nM
--
compound: COc1cc(-n2cnc3cc(C4CCN(CC#N)CC4)ccc32)cc(OC)c1C(=O)NCC(F)(F)F
experimental-target: SIK2 (Homo sapiens)
IC50: > 500 nM
--
compound: COc1cc(-n2cnc3cc(C4CCOCC4)ccc32)cc(OC)c1C(=O)NCC(F)(F)F
experimental-target: SIK2 (Homo sapiens)
IC50: > 500 nM
--
compound: CCC(C)(C#N)c1ccn2c(-c3cc(OC)c(C(=O)NC4CC4)c(OC(F)F)c3)cnc2c1 (centres unmarked)
experimental-target: SIK2 (Homo sapiens)
IC50: > 500 nM
--
compound: COc1cc(-c2cnc3cc(C4CCCNC4)ccn23)cc(OC)c1C(=O)NCC(F)(F)F (centres unmarked)
experimental-target: SIK2 (Homo sapiens)
IC50: 100 to 500 nM
--
compound: COc1cc(-n2cnc3cc(C4CCCN(CC#N)C4)ccc32)cc(OC)c1C(=O)NCC(F)(F)F (centres unmarked)
experimental-target: SIK2 (Homo sapiens)
IC50: > 500 nM

* * *

tested on: LPS triggered IL-10 secretion in monocytes; assay: Monocytes assay: LPS-triggered IL-10 (ELISA); assay type: cell-based, human; conditions: Homo sapiens, Monocyte, LPS-triggered IL-10 induction, median maximal fold change vs LPS only, read-out: IL-10 FCmax median

compound: COc1cc(-c2cnc3cc(C(C)(C)CO)ccn23)cc(OC(F)F)c1C(=O)NC1CC1
experimental-target: LPS triggered IL-10 secretion in monocytes
maximal fold induction: < 1.5

compound: COc1cc(-c2cnn3cc(C4(C(N)=O)CCC4)ccc23)cc(OC(F)F)c1C(=O)N[C@@H]1C[C@@H]1F
experimental-target: LPS triggered IL-10 secretion in monocytes
maximal fold induction: < 1.5

compound: COc1cc(-c2cnn3cc(C4(O)CCC4)ccc23)cc(OC(F)F)c1C(=O)N[C@@H]1C[C@@H]1F
experimental-target: LPS triggered IL-10 secretion in monocytes
maximal fold induction: < 1.5

compound: COc1cc(-c2cnn3cc(C(C)(C)O)ccc23)cc(OC(F)F)c1C(=O)N[C@@H]1C[C@@H]1F
experimental-target: LPS triggered IL-10 secretion in monocytes
maximal fold induction: < 1.5

compound: COCC(C)(C#N)c1ccn2c(-c3cc(OC)c(C(=O)NC4CC4)c(OC(F)F)c3)cnc2c1 (stereo not drawn)
experimental-target: LPS triggered IL-10 secretion in monocytes
maximal fold induction: < 1.5

compound: COc1cc(-c2cnc3cc([C@@](C)(C#N)CO)ccn23)cc(OC(F)F)c1C(=O)NC1CC1 (single isomer, unassigned)
experimental-target: LPS triggered IL-10 secretion in monocytes
maximal fold induction: < 1.5

compound: COc1cc(-c2cnc3cc(C(C)(O)C(F)(F)F)ccn23)cc(OC(F)F)c1C(=O)NC1CC1 (stereo not drawn)
experimental-target: LPS triggered IL-10 secretion in monocytes
maximal fold induction: 1.5 to 4.5

compound: COc1cc(-c2cnc3cc(C4(F)COC4)ccn23)cc(OC(F)F)c1C(=O)N[C@@H]1C[C@@H]1F
experimental-target: LPS triggered IL-10 secretion in monocytes
maximal fold induction: 1.5 to 4.5

compound: COc1cc(-c2cnn3cc(C(C)(C)CN4CCOCC4)ccc23)cc(OC(F)F)c1C(=O)N[C@@H]1C[C@@H]1F
experimental-target: LPS triggered IL-10 secretion in monocytes
maximal fold induction: 1.5 to 4.5

compound: COc1cc(-c2cnn3cc(C(C)(C)CO)ccc23)cc(OC(F)F)c1C(=O)NC1CC1
experimental-target: LPS triggered IL-10 secretion in monocytes
maximal fold induction: < 1.5

compound: COc1cc(-c2cnc3cc(C4COC4)ccn23)cc(OC(F)F)c1C(=O)NC1CC1
experimental-target: LPS triggered IL-10 secretion in monocytes
maximal fold induction: 1.5 to 4.5

compound: COc1cc(-c2cnc3cc(C4(C#N)CCOCC4)ccn23)cc(OC)c1C(=O)NCC(F)(F)F
experimental-target: LPS triggered IL-10 secretion in monocytes
maximal fold induction: 1.5 to 4.5

compound: COc1cc(-c2cnc3cc(C(C)(C)C#N)ccn23)cc(OC(F)F)c1C(=O)N[C@@H]1C[C@H]1F (racemic)
experimental-target: LPS triggered IL-10 secretion in monocytes
maximal fold induction: < 1.5

compound: COc1cc(-c2cnc3cc(C(O)CC#N)ccn23)cc(OC(F)F)c1C(=O)NC1CC1 (stereo not drawn)
experimental-target: LPS triggered IL-10 secretion in monocytes
maximal fold induction: 1.5 to 4.5

compound: COc1cc(-c2cnc3cc(C4(O)CCC4)ccn23)cc(OC(F)F)c1C(=O)N[C@@H]1C[C@@H]1F
experimental-target: LPS triggered IL-10 secretion in monocytes
maximal fold induction: 1.5 to 4.5

Reference source for all entries: patent US12391679B2
